- tgt: SARS-CoV full length Spike protein, wild type, expressed on CHO cells (SARS-CoV, UniProt P59594 14-1255)
- assayDetails: flow cytometry, live cell assay on transfected CHO cells
experimentalReadout: binding result

• anti-SARS-CoV-2 antibody 851 (antibody, V domains shown) VH: QITLKESGPTLVKPTQTLTLTCTFSGFSLSTNGVGMGWIRQPPGKALEWLALIYWDDDQFYSPSLKSRLTITRDTSKNQVVLTMTNMDPVDTATYYCAQAFYESFGFYSWGQGTLVTVSS VL: NFMLTQPHSVSESPGKTVIISCTRSIGSIASNYVQWYQQRPGSAPTIVVFEDNERPSGVPDRFSGSIDRSSNSASLTISGLKTEDEADYYCQSYDGSSELVFGGGTKLTVLG = no binding
• anti-SARS-CoV-2 antibody 1444 (antibody, V domains shown) VH: QVQLVQSGAEVKKPGASVKVSCKASGYTFTAYYMHWVRQAPGQGLEWMGWINPNSDDTNYAQKFQGRVTMTRDTSISTAYMELSRLRSDDTAVYYCAREEGVFTIGDRYFDLWGRGTLVSVSS VL: QTVVTQEPSFSVSPGGTVTLTCGLSSGSVSTSYYPSWYQQTPGQAPRTLIYNTNTRSSGVPDRFSGSILGNKAALTITGAQADDESDYYCVLYMGSGIWVFGGGTKLTVLG = no binding
• anti-SARS-CoV-2 antibody 1538 (antibody, V domains shown) VH: EVQLLESGGGLVQPGGSLRLSCAASGFTFSSYAMSWVRQAPGKGLEWVSGISDSGGSTYYADYVKGRFTISRDNSKDTLYLQMNSLRAEDTAVYYCAKDRGNEYALTHYYYYAMDVWGQGTTVTVSS VL: DIQMTQSPSSLSASVGDRVTITCRASQSISSYLNWYQQKPGKAPKLLIYAAYSLQSGVPSRFSGGGSGTDFTLTISSLQPEDFATYFCQQSYSTPITFGQGTRLEIKR = no binding
